# target-or-system: T1, recombinant human SEMA4A AviHis10, biotinylated (human, UniProt Q9H3S1 33-683, biotin on the Avi tag (BirA))
# T1 construct: The text says amino acids 33-683 of Q9H3S1 with C-terminal Avi tag and His10 tag; also called avi-SEMA4A-His10
# T1 sequence: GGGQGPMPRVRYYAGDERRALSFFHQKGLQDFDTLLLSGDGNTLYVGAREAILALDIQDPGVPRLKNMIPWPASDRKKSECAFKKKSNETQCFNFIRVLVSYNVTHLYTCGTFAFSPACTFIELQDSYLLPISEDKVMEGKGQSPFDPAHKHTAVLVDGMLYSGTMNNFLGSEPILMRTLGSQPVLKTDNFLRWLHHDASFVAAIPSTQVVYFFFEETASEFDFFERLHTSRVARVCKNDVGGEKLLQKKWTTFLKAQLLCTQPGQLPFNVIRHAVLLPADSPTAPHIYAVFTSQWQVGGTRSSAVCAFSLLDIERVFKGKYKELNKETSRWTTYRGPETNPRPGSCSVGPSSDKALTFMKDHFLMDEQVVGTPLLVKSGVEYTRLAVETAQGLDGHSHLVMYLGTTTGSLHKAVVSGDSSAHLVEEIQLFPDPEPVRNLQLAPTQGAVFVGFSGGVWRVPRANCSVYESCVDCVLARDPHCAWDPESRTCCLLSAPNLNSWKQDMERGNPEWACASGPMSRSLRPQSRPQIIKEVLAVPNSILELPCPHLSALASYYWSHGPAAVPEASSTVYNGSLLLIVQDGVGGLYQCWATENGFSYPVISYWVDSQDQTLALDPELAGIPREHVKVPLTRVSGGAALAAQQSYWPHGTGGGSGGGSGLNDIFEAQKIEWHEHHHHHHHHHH
# experiment-notes: BLI (OctetRED), biotinylated SEMA4A on streptavidin tip, IgG as analyte, 1:1 model; KD(observed) IgG
I'd be grateful if you could share measured Kd for these entries.
Output spec: scalar in nM, unitless text.

Lookup: Consider the binder C0120906 human Alya IgG1 (antibody, V domains shown, Fully human, phage display derived; human IgG1 Alya constant (239iCys, S442C, EU); unconjugated) VH: EVQLVQSGPEVKKPGASVKISCKASGYKLNDPGVHGVSWVRQAPGQGLEWMGWISTLNGDTRYAQKFQGRVTMATDSSTSTIYMDLRSLKSDDTALYYCARDDYTAIFDFWGRGTLVTVSS VL: QSVLTQPPSVSVAPGQTASITCGGSNIGSQSVHWYQQKPGQAPVLVVYDDSDRPSGIPERFSGSKSGNTASLILSRVEAGDEADYYCQVWDSSTDHHVFGTGTKVTVL and give its measured Kd.
Found: 11

Lookup: Which measured Kd value corresponds to C0120903 human Alya IgG1 (antibody, V domains shown, Fully human, phage display derived; human IgG1 Alya constant (239iCys, S442C, EU); unconjugated) VH: EVQLVQSGAEVKKPGSSMKVSCKASGGTFNSYTINWVRQAPGQGLEWVGGFIPIFGTADYAQKFHGRVAITADESMSTAYMELSSLRSEDTAVYYCARAPLGSEPFDYWGQGTMVTVSS VL: SYVLTQPPSVSVAPGQTARITCGGNNIGSKSVHWYQQKPGQAPVLVVYDDSDRPSGIPERFSGSNSGNTATLTISRVEAGDEADYYCQVWDSSSDHLVFGGGTKLTVL ?
Found: 6

Lookup: Bench note: what Kd did C0120914 human Alya IgG1 (antibody, V domains shown, Fully human, phage display derived; human IgG1 Alya constant (239iCys, S442C, EU); unconjugated) VH: QVQLQESGPGLVKPSETLSLTCTVSGGSVSSGRYDWSWIRQPPGKGLEWIGHIYYTGITDYNPSLRSRVTISADKPKNQFSLKLNSVTAADTAVYYCARGPFFDPWGQGTMVTVSS VL: QSVLTQPPSVSVAPGQTASLTCGANNIGSKSVQWYQQKPGQAPVLVVYDGSDRPSGIPDRFSGSSSENTATLTISRVEAGDEADYYCQLWDSVTDRPVFGGGTKVTVL show?
Found: 21

Origin of values: patent US20250152729A1
